- SYSTEM UNDER TEST: T1, human CD112R antigen protein huCD112R-His (Acro Biosysterm, PVG-H52H4) (human, UniProt Q6DKI7 41-171)
- T1 construct: purchased; also called human antigen protein; not shown: His tag
- T1 sequence (looked up): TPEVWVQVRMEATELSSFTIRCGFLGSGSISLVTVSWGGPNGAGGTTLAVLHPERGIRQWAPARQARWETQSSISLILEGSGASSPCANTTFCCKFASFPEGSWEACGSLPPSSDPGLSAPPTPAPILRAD
- RUN DESCRIPTION: SPR (Biacore X100), antibody captured on Protein A chip, huCD112R-His as analyte, 1:1 Langmuir
Each item that follows carries a reported pKd.
Keep it numeric: pKd is minus log10 of the concentration in mol/L.

{"BINDER": "C18 (antibody, human IgG1, kappa, V domains shown) VH: EVQLVESGGGLVKPGGSLKLSCAASGFTFSDYYMYWVRQTPEKRLEWVATISDGGGFIYYPDSVKGRFTISRDNDRNSLYLLMSSLKSEDTAMYFCGREDLWGQGTSVTVSS VL: DIQMTQSPSSLSASLGERVSLTCRASQDIGRSLNWLQQGPDGTVKRLIYATSRLDSGVPTRFSGSRSGSDYSLTISSLESEDFVDYYCLQYASFPYTFGGGTKLEIKR", "pKd": 9.69}
{"BINDER": "C12 (antibody, human IgG1, kappa, V domains shown) VH: EVQLVASGGGLVKPGGSLKLSCAASGFTFSDYYMYWVRQTPEKRLEWVATISDGGGYTYYPDSVKGRFTISRDNDRNSLYLQMSSLKSEDTAMYYCGREDLWGQGTSVTVSS VL: DIQMTQSPSSLSASLGERVSLTCRASQDIGSSLNWLQQEPDGTVKRLIYATSRLDSGVPKRFSGSRSGSDYSLTISSLESEDFVDYYCLQYASFPYTFGGGTKLEIKR", "pKd": 8.54}
{"BINDER": "C63 (antibody, human IgG1, kappa, V domains shown) VH: EVMLVESGGGLVKPGGSLKLSCAASGFIFSSYIMSWVRQTPEKRLEWVATIRGGGGNTYYLDSVKGRFIISRDNAKNNLYLQMSSLRSEDTALYYCARHEDYEWYAMDNWGQGTSVTVSS VL: QIVLTQSPAIMSASPGEKVTLTCSARSSVSYMYWYQQKPGSSPKLLIYDTSNLASGVPVRFSGSGSGTSYSLTISRMEAEDAATYYCQQWSSYPLTFGAGTKLELKR", "pKd": 9.31}
{"BINDER": "C138 (antibody, human IgG1, kappa, V domains shown) VH: EVQLVESGGGLVKPGGSLKLSCAASGFTFSSYAMSWVRQTPAKRLEWVATITSGDIRTYYPDTVKGRFTISRDNAKNTLYLQMRSLRSEDTAMYYCVGHDDFHFYAMDYWGQGTSVTVSS VL: QIVLTQSPAIMSASPGEKVTMTCSASSSVSYLYWYQQKPGSSPRLLIYDTSNLASGVPVRFSGSGSGTSYSLTLSRMEAEDAATYYCQQWSSYPLTFGAGTKLELKR", "pKd": 9.26}

Alright, here's another binder for you.
State the recorded pKd for this entry: C101 (antibody, human IgG1, kappa, V domains shown) VH: EVQLQQSGPELVKPGSSVKISCEASGFTFADYNVDWVKQSHGKSLEWIGAINPNDGGTSYNQKFEGKATLTVDKSSTTAYMELRSLTSEDSAVYYCARWVNNDWYFDVWGTGTTVTVSS VL: DIVMTQSQKFMSTSVGDRVSITCKASQNVRSAVDWYQQKPGQSPKTLIHSASNRHTGVPDRFTGSGSGTDFTLTISNIQSEDLADYFCLQHWNYPYTFGGGTKLEVKR
10.41
